test: Enzyme-coupled assay: transfer of acyl-moieties from MMal-CoA to the ACP; format: biochemical; details: substrate MMal-CoA, acceptor ACP from murine FAS
MEASURED ENDPOINT: Km (µM)
Give just the numeric value; µM need not be written.

Kindly indicate its recorded Km. Item: Mutant A11: engineered murine acyltransferase, mutation R300E (protein) NKRPLWFICSGMGTQWRGMGLSLMRLDSFRESILRSDEAVKPLGVKVSDLLLSTDERTFDDIVHAFVSLTAIQIALIDLLTSVGLKPDGIIGHSLGEVACGYADGCLSQREAVLAAYWRGQCIKDAHLPPGSMAAVGLSWEECKQRCPAGVVPACHNSEDTVTISGPQAAVNEFVEQLKQEGVFAKEVRTGGLAFHSYFMEGIAPTLLQALKKVIREPRPRSARWLSTSIPEAQWQSSLARTSSAEYNVNNLVSPVLFQEALWHIPEHAVVLEIAPHALLQAVLKRGVKSSCTIIPLMKEDHKDNLEFFLTNLGKVHLT
3.33

Please report the measured Km for Mutant A07: engineered murine acyltransferase, mutation K186D (protein) NKRPLWFICSGMGTQWRGMGLSLMRLDSFRESILRSDEAVKPLGVKVSDLLLSTDERTFDDIVHAFVSLTAIQIALIDLLTSVGLKPDGIIGHSLGEVACGYADGCLSQREAVLAAYWRGQCIKDAHLPPGSMAAVGLSWEECKQRCPAGVVPACHNSEDTVTISGPQAAVNEFVEQLKQEGVFADEVRTGGLAFHSYFMEGIAPTLLQALKKVIREPRPRSARWLSTSIPEAQWQSSLARTSSAEYNVNNLVSPVLFQEALWHIPEHAVVLEIAPHALLQAVLKRGVKSSCTIIPLMKRDHKDNLEFFLTNLGKVHLT
18.6
